Molecular target: T1, recombinant cyno BCMA, in house material (cyno, UniProt A0A2K5UD97 4-52)
T1 construct: also called Cyno in house BCMA
T1 sequence (A0A2K5UD97 entry or part of it): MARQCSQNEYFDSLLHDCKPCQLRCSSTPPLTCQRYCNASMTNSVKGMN
Experiment: ProteOn SPR run 2, antibody captured on Protein A, 25C
pKd: −log10 of the molar value.
Reported values of pKd for individual entries
readout-kind: pKd

INSERT INTO results (binder, readout_kind, test_value) VALUES
  ('CA8 chimera antibody (human chimeric CA8) (antibody, V domains shown, also called Chimera CA8; CA8 chimeric antibody) VH: EVQLQQSGAVLARPGASVKMSCKGSGYTFTNYWMHWVKQRPGQGLEWIGATYRGHSDTYYNQKFKGKAKLTAVTSTSTAYMELSSLTNEDSAVYYCTRGAIYNGYDVLDNWGQGTLVTVSS VL: DIQLTQTTSSLSASLGDRVTISCSASQDISNYLNWYQQKPDGTVELVIYYTSNLHSGVPSRFSGSGSGTDYSLTIGYLEPEDVATYYCQQYRKLPWTFGGGSKLEIKR', 'pKd', 8.69),
  ('CA8 humanised J6M1 (antibody, human IgG1, kappa, V domains shown, Humanised CA8, heavy chain J6 with light chain M1, human IgG1 kappa; also called CA8 J6M1) VH: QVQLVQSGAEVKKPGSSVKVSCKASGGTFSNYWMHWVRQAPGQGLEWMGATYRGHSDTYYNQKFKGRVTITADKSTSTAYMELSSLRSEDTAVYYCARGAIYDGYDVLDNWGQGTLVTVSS VL: DIQMTQSPSSLSASVGDRVTITCSASQDISNYLNWYQQKPGKAPKLLIYYTSNLHSGVPSRFSGSGSGTDYTLTISSLQPEDFATYYCQQYRKLPWTFGQGTKLEIKR', 'pKd', 8.28),
  ('CA8 humanised J6M2 (antibody, human IgG1, kappa, V domains shown, Humanised CA8, heavy chain J6 with light chain M2, human IgG1 kappa; also called CA8 J6M2) VH: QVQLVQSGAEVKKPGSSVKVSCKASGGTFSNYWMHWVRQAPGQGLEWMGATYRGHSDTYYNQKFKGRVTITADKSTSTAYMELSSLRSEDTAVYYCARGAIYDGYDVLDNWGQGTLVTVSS VL: DIQLTQSPSSLSASVGDRVTITCSASQDISNYLNWYQQKPGKAPELVIYYTSNLHSGVPSRFSGSGSGTDYTLTISSLQPEDFATYYCQQYRKLPWTFGQGTKLEIKR', 'pKd', 8.16);
